Recorded % Growth Relative to Control Cultures, one value per entry.
System: lymphoma cell line MOLT-4
Experiment: Tumor cell line growth inhibition, MOLT-4
Type: cell-based
Settings: 0.4 μg/mL, day 2
Peptide text beside a SMILES is read from it. * marks the point of attachment. Cbz = O=C(OCc1ccccc1)*; CH2Cl = ClC*

COMPOUND	% Growth Relative to Control Cultures / %
CC(C)CC(NC(=O)OC(C)(C)C)C(=O)CBr (stereo not shown) [Boc-LeuCH2 Br]	66
CC(C)C[C@H](NC(=O)[C@H](CO)NC(=O)CNC(=O)[C@H](Cc1ccccc1)NC(=O)OCc1ccccc1)C(=O)CCl [Z--Phe-Gly-Ser-LeuCH2 Cl, Z-Phe-Gly-Ser-LeuCH2 Cl] (Cbz-FGSL-CH2Cl)	40
CC(C)C[C@H](NC(=O)[C@H](C)NC(=O)[C@H](CO)NC(=O)[C@H](Cc1ccccc1)NC(=O)OCc1ccccc1)C(=O)CCl [Z--Phe-Ser-Ala-LeuCH2 Cl, Z-Phe-Ser-Ala-LeuCH2 Cl] (Cbz-FSAL-CH2Cl)	80
CC(C)C[C@H](NC(=O)OC(C)(C)C)C(=O)CCl [Boc-LeuCH2 Cl]	86
